Numbers sourced from ChEMBL document CHEMBL3352277.

Parameter IC50: see the listing below.
subject_of_test: Aurora kinase A (Homo sapiens, UniProt O14965)
Sequence (O14965 whole entry): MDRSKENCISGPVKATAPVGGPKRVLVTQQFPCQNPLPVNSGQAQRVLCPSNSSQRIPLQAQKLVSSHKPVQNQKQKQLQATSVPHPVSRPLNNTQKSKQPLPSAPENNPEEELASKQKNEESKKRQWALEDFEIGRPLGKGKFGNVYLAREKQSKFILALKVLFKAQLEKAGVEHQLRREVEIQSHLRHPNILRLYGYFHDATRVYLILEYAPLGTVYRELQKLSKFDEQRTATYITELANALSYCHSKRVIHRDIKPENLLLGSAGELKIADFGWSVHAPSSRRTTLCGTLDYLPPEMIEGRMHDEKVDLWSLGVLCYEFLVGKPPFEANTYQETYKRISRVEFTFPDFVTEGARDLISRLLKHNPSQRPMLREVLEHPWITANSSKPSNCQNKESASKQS

{"smiles_repr": "COC(=O)c1cccc(-c2cn(-c3ccc(O)c(C(=O)Nc4cccc(C(F)(F)F)c4)c3)nn2)c1", "IC50, nM": 1820}
{"smiles_repr": "COC(=O)c1cccc(NC(=O)c2cc(-n3cc(-c4cc(OC)cc(OC)c4)nn3)ccc2O)c1", "IC50, nM": 370}
